Examples of compounds with documented Human Plasma Prodrug (%) follow.
Recorded Conditions: 10 min, 5 µM
Parameter Measured: Human Plasma Prodrug (%)

CCCCCC(C)C(=O)OC1=C[C@@H]2N(C)CC[C@]2(c2ccc(OC)c(OC)c2)CC1 (some centres unmarked) | 34.7
CCC(C)C(=O)OC1=C[C@@H]2N(C)CC[C@]2(c2ccc(OC)c(OC)c2)CC1 (some centres unmarked) | 6.5
COCCCCC(=O)OC1=C[C@@H]2N(C)CC[C@]2(c2ccc(OC)c(OC)c2)CC1 | 22.9
COc1ccc([C@@]23CCC(OC(=O)c4cccc(C)c4C)=C[C@@H]2N(C)CC3)cc1OC | 96.3
COc1ccc([C@@]23CCC(OC(=O)CC(C)(C)C)=C[C@@H]2N(C)CC3)cc1OC | 82.1
COc1ccc([C@@]23CCC(OC(=O)CCC(C)C)=C[C@@H]2N(C)CC3)cc1OC | 5.6
CCCCCCCC(=O)OC1=C[C@@H]2N(C)CC[C@]2(c2ccc(OC)c(OC)c2)CC1 | 13.9
CCC(C)(C)C(=O)OC1=C[C@@H]2N(C)CC[C@]2(c2ccc(OC)c(OC)c2)CC1 | 82.9
CCCC(CC)CC(=O)OC1=C[C@@H]2N(C)CC[C@]2(c2ccc(OC)c(OC)c2)CC1 (some centres unmarked) | 96.4

----------
Recorded Conditions: 30 min, 5 µM
Classify as follows. Reported Human Plasma Prodrug (%) greater than or equal to 5%: rule met. Reported Human Plasma Prodrug (%) below: rule not met.

COCCOCCC(=O)OC1=C[C@@H]2N(C)CC[C@]2(c2ccc(OC)c(OC)c2)CC1 | rule met
CCC(C)(C)C(=O)OC1=C[C@@H]2N(C)CC[C@]2(c2ccc(OC)c(OC)c2)CC1 | rule met
CCC(C)C(=O)OC1=C[C@@H]2N(C)CC[C@]2(c2ccc(OC)c(OC)c2)CC1 (stereo partly shown) | rule not met
COCCCCC(=O)OC1=C[C@@H]2N(C)CC[C@]2(c2ccc(OC)c(OC)c2)CC1 | rule met
COc1ccc([C@@]23CCC(OC(=O)c4c(C)cccc4C)=C[C@@H]2N(C)CC3)cc1OC | rule met
COc1ccc([C@@]23CCC(OC(=O)CC(C)(C)C)=C[C@@H]2N(C)CC3)cc1OC | rule met
CCCC(CCC)C(=O)OC1=C[C@@H]2N(C)CC[C@]2(c2ccc(OC)c(OC)c2)CC1 | rule met
CCC(CC)C(=O)OC1=C[C@@H]2N(C)CC[C@]2(c2ccc(OC)c(OC)c2)CC1 | rule met
CCCC(C)C(=O)OC1=C[C@@H]2N(C)CC[C@]2(c2ccc(OC)c(OC)c2)CC1 (stereo partly shown) | rule not met
CCCCCC(C)C(=O)OC1=C[C@@H]2N(C)CC[C@]2(c2ccc(OC)c(OC)c2)CC1 (stereo partly shown) | rule met
COc1ccc([C@@]23CCC(OC(=O)c4cccc(C)c4)=C[C@@H]2N(C)CC3)cc1OC | rule met
COc1ccc([C@@]23CCC(OC(=O)CCN)=C[C@@H]2N(C)CC3)cc1OC | rule not met
CCCCC(CC)C(=O)OC1=C[C@@H]2N(C)CC[C@]2(c2ccc(OC)c(OC)c2)CC1 (stereo partly shown) | rule met
CCCCCCCC(=O)OC1=C[C@@H]2N(C)CC[C@]2(c2ccc(OC)c(OC)c2)CC1 | rule not met
CCCC(C)(C)C(=O)OC1=C[C@@H]2N(C)CC[C@]2(c2ccc(OC)c(OC)c2)CC1 | rule met
COc1ccc([C@@]23CCC(OC(=O)CCC(C)C)=C[C@@H]2N(C)CC3)cc1OC | rule not met
